# reported inhibition; entries follow
# experimental-system: cAMP-dependent protein kinase catalytic subunit alpha (Homo sapiens) (UniProt P17612)
# assay: PKA catalytic subunit kinase inhibition – biochemical, ATP-depletion luminescence, Kemptide substrate, primary screen (AID 524)
# assay-conditions: PKA Kemptide phosphorylation, Kinase-Glo ATP luminescence; at 6 µM; active compounds read high
The campaign covered roughly 65,000 compounds. About 95 (0.1%) were called active. Many of the other results were omitted from the sample, so actives are more common in it than they were.

compound	inhibition, %
COc1ccc(CN2CC(C(=O)NCCN3CCN(c4ccccc4F)CC3)CC2=O)cc1 (stereo unspecified)	-0.3
O=C1c2ccccc2C(=O)N1c1ccccc1S(=O)C(F)(F)F (stereo unspecified)	-0.9
Cc1ccccc1-n1c(SCC(=O)NCc2cccs2)nnc1-c1ccncc1	11.7
CCC(=O)N1CCN=C1SCc1ccc(F)cc1	3.7
CC1(C)C2CCC1(C)C(OC(=O)CCn1ccnc1)C2 (stereo unspecified)	7.3
CCc1ccc(CCC(=O)Nc2ccc(S(N)(=O)=O)cc2)o1	-0.9
O=C(C1CCN(c2nnc(-n3cccc3)s2)CC1)N1CCc2ccccc2C1	-3.8
O=c1c2ccccc2[nH]c(=S)n1CCN1CCC(=C(c2ccc(F)cc2)c2ccc(F)cc2)CC1	-4.7
CN(Cc1ccccc1)c1nc2c(c(=O)[nH]c(=O)n2C)n1CCSc1nc2ccccc2[nH]1	2.7
CCc1cccc2c3c([nH]c12)C(CC)(CC(=O)O)OCC3 (stereo unspecified)	-6.8
Cc1ccc(Cc2cncc(O)c2)cc1S(=O)(=O)O	-3.1
CCCNS(=O)(=O)c1ccc2c(c1)CCCN2C(C)=O	9.1
CC(=O)Nc1cccc(NC(=O)c2c(-c3ccccc3)noc2C)c1	-5.3
Cc1ccc(S(=O)(=O)N2CCOCC2)cc1C(=O)NCc1ccc(F)cc1	8.8
CC(=O)NC1CC2CCCC(C1)N2CC(=O)Nc1ccccc1 (stereo unspecified)	6
CCCc1cc(=O)n2[nH]c(SCc3ccccc3)nc2n1	5.4
CCOCC(=O)Nc1cc(OC)c(Cl)cc1OC	5.6
CCOC(=O)N1CCN(CC(=O)c2c(C)[nH]c3ccccc23)CC1	-3.4
COC(=O)CCSc1nccn1Cc1ccccc1	1.3
COc1cc(C2C3C(=O)N(c4ccccc4)C(=O)C3ON2c2ccccc2)ccc1O (stereo unspecified)	4.7
COc1ccc(N=Cc2c(O)[nH]c3ccccc23)cc1OC	9.6
COc1ccc(OC)c2[nH]c(=O)c(CCNC(=O)C(C)(C)C)cc12	2.9
CN(C)S(=O)(=O)c1ccc(Oc2ccc(S(=O)(=O)N(C)C)cc2)cc1	9
CC(C)N(C(=O)Cn1c(SCC(=O)N2CCN(c3ccccc3)CC2)nc2ccccc21)C(C)C	7.5
CCn1c(SCC(=O)Nc2cccc(F)c2)nnc1-c1cc2cc(Br)ccc2o1	10.1
CC(=O)Nc1cc2ccc(OC(C)=O)cc2oc1=O	5.7
CC(C)Cc1ccc(S(=O)(=O)N2CCN(C(=O)c3ccco3)CC2)cc1	7
CN1CCCc2cc(C#N)c(=O)[nH]c21	11.8
O=C(CSc1nc2ncccc2[nH]1)Nc1ccc2c(c1)OCCO2	-9.5
CC(C)C(C(=O)NC1CCCCC1)N(CC1CCCO1)C(=O)CNS(=O)(=O)c1ccc(F)cc1 (stereo unspecified)	4.8
CC(=O)Oc1ccc(C(=O)Nc2nccs2)cc1	-2.3
COCCCNC(=O)c1ccc(CNS(=O)(=O)c2ccc(NC(C)=O)cc2)cc1	-2.5
O=C(NCCCNCc1ccccc1)c1ccc(/C=N/O)nc1	9.9
CCOc1ccccc1Oc1cn[nH]c1-c1ccc(OC)cc1O	-1.5
Cc1nnc(SCC(=O)NCc2cccs2)[nH]c1=O	12.3
O=C(Cc1cccs1)N1CCCC(c2nc(-c3ccc(S(=O)(=O)N4CCCC4)cc3)no2)C1 (stereo unspecified)	8.4
